Test system: Plasmodium berghei
Assay Comment: Screen against P. berghei liver stage (PbLuc), transformed with Luciferase, at 10uM
Assay type: functional, HepG2
Condition Details: tested at 10 uM
Among all 69,000 compounds or so, about 8,600 (12%) showed an effect of 50% or more. This excerpt belongs to a sample that is enriched for strong results.
Each record's class is read off its INHIBITION using these ranges: low bin (below 10%), mid bin (10% to below 50%), high bin (50% or more)

1) CSCC[C@@H]1CN2CCC[C@H]2CN1Cc1coc2ccc(C)cc2c1=O = mid bin
2) Cc1cnn(Cc2cc(F)ccc2F)c1NC(=O)C1CCOCC1 = high bin
3) CN(C)C(=O)c1ccc(CNc2c(Cl)cccc2C#N)cc1 = mid bin
4) O=S(=O)(c1cccs1)N1CCCn2nnc(CN3CCCCC3)c2C1 = mid bin
5) CCC(C(=O)NCC1=CCCN(C)C1)c1ccccc1 (configuration not stated) = low bin
6) O=C(NCCCN1CCOCC1)c1ccc(-n2ccc3ccccc32)s1 = mid bin
7) Cc1nn(C)c(Cl)c1S(=O)(=O)N(C)c1ccc(Cl)cn1 = mid bin
8) CCOc1cc(Cl)ccc1CNC(=O)N(C)CC(C)(C)O = mid bin
9) Cn1cnc2c1C(COCC1CC1)CN(c1ncccn1)C2 (configuration not stated) = low bin
10) CC1(C)OCC(CNC(=O)c2cnn(-c3cccc(Cl)c3Cl)c2N)O1 (configuration not stated) = low bin
11) O=S(=O)(c1cccnc1)N1CCN(CC(O)c2cccs2)CC1 (configuration not stated) = low bin
12) O=C(NCCCN1CCCCC1)c1ccc(-n2ccc3ccccc32)s1 = high bin
13) COC(=O)N1CCC(NC(=O)c2cc(S(N)(=O)=O)ccc2C)CC1 = mid bin
14) CCN(Cc1ccncc1)C1CCN(c2ccccc2)C1=O (configuration not stated) = low bin
15) CC(C)CNC(=O)C1CC(=O)N(c2n[nH]c3ccccc23)C1 (configuration not stated) = low bin
16) Cn1nc(C(=O)N2CCC(Oc3ccc(C#N)cn3)CC2)ccc1=O = mid bin
17) COc1ccc(CNC(=O)N(C)CC(C)(C)O)cc1OC = mid bin
18) CCN(Cc1ccccc1)C1CCN(c2cc(C)nn2C)C1=O (configuration not stated) = high bin
19) Cc1cc(N2CCC(N(C)Cc3cccnc3)C2=O)n(C)n1 (configuration not stated) = high bin
20) CCC1CN(CC(=O)NCCN(CC)CC)c2ccccc2S1 (configuration not stated) = mid bin
21) CC(Cn1cnc2cn(C)nc2c1=O)Oc1cccnc1 (configuration not stated) = high bin
22) CCN(Cc1cccnc1)C1CCN(c2ccccc2)C1=O (configuration not stated) = low bin
23) COc1ccc(N2CCNC(C(N)=O)C2)cc1 (configuration not stated) = low bin
24) O=S(=O)(c1ccc(Cl)s1)N1CCN(Cc2nc(-c3ccco3)cs2)CC1 = high bin
25) CN(c1ccc(CNc2c(Cl)cccc2C#N)cc1)S(C)(=O)=O = mid bin
26) CCOC(C)c1noc(CN2CCN(c3ccncc3)CC2)n1 (configuration not stated) = high bin
27) CS(=O)(=O)N1CCc2sc(C(=O)NCc3ccncc3)cc21 = mid bin
28) CN1CCCC(C(=O)N2CCC(Oc3ccc(C#N)cn3)CC2)C1 (configuration not stated) = high bin
29) O=S(=O)(c1cccs1)N1CCCn2cnc(CN3CCCC3)c2C1 = low bin
30) CCNC(=O)[C@@H]1C[C@@H](NC(=O)c2ccc(C)cc2O)CN1CCCSC = mid bin
31) CCS(=O)(=O)c1ccc(CNc2c(Cl)cccc2C#N)cc1 = high bin
32) O=S(=O)(c1cccnc1)N1CCN(Cc2nc(-c3cccs3)cs2)CC1 = high bin
33) O=S(=O)(c1cccnc1)N1CCN(CC(O)c2ccccc2)CC1 (configuration not stated) = high bin
34) O=C(NCCN1CCOCC1)c1ccc(-n2ccc3ccccc32)s1 = high bin
35) Cn1cc(CCC(=O)NCc2ccccc2OC(C)(C)C)cn1 = low bin
36) CC(=O)Nc1c(C)cnn1Cc1cc(F)ccc1F = low bin
37) N#CCCN1CCN(S(=O)(=O)c2ccc(Cl)s2)CC1 = mid bin
38) CC(C)CNC(=O)CN(C)S(C)(=O)=O = mid bin
39) CCN(Cc1cnc(C)cn1)C1CCN(c2ccccc2)C1=O (configuration not stated) = mid bin
40) CCN(CC)CCNC(=O)c1cnc(C(C)(C)C)s1 = low bin
41) CCCN1CCCn2nc(CNS(=O)(=O)c3cnn(CC)c3)cc2C1 = mid bin
42) CN1CCCC(C(=O)N2CCC(Oc3ccccn3)CC2)C1 (configuration not stated) = mid bin

###

The following molecules are shown together with reported INHIBITION values.
Tested on: Plasmodium berghei
Assay Comment: Screen against P. berghei liver stage (PbLuc), transformed with Luciferase, at 10uM
Format: functional, HepG2
Condition Details: tested at 10 uM
The campaign covered roughly 69,000 compounds. About 8,600 (12%) showed an effect of 50% or more. Many of the other results were omitted from the sample, so strong results are more common in it than they were.
Reported Endpoint: INHIBITION (%)

1) O=C(c1ccccn1)N1CCN(c2ccc(-c3cccnc3)nn2)CC1 = 21.6
2) CCCOCCN1CCC2(CC1)CC(=O)N(Cc1cc(F)cc(F)c1)C2 = 64.1
3) CN1CCCC(CNC(=O)N(C)Cc2ccc(Cl)c(F)c2)C1 (stereo unspecified) = 31
4) CN(C)[C@@H]1CN(C(=O)c2cc3cccc(F)c3[nH]2)C[C@H]1O = -0.275
5) Cc1cc(C)n(CC(C)NCc2cnc3c(C)cccn23)n1 (stereo unspecified) = 60.4
6) NC(=O)c1cccc(-c2cnc(C3CCCNC3)cn2)c1 (stereo unspecified) = 34.3
7) CO[C@H]1CN(Cc2cccc(C#N)c2)[C@@H]2COC[C@H]12 = 34.1
8) Cc1nnc(C2Cc3ccccc3CN2Cc2nc(C3CC3)no2)o1 (stereo unspecified) = 23.7
9) CC(C)=CCN1CCC2(CC1)CC(=O)N(Cc1cc(F)cc(F)c1)C2 = 38.6
10) Cc1cc(C)cc(-c2ccc(CC3(C(=O)O)CCOCC3)cc2)c1 = 61.4
11) CC1CCN(C(=O)C2(Cc3cc(C4CCOC4)no3)CCNCC2)CC1 (stereo unspecified) = 32.3
12) Cc1nn(C)c(N2CCOCC2)c1CNCc1ccoc1C = -29.8
13) Cc1cc(C)n(CC(C)NCc2nc(-c3cccnc3)no2)n1 (stereo unspecified) = 45.9
14) Cc1cccc(-c2cccc(CC3(C(=O)O)CCOCC3)c2)c1 = 13.5
15) COc1ccc(C(=O)COc2coc(CN3CCCCC3)cc2=O)cc1 = 44.9
16) Cc1cc(CN2Cc3ccccc3CC2c2nnc(C)o2)no1 (stereo unspecified) = 7.67
17) CCc1nnc(C2Cc3ccccc3CN2Cc2nc(C3CC3)no2)o1 (stereo unspecified) = 60.9
18) O=C(Cc1ccc(F)cc1)NCCNc1cc(N2CCCC2)ncn1 = 31.7
19) O=C(c1cccc(O)n1)N1CCC(O)(CN2CCC(F)(F)CC2)C1 (stereo unspecified) = -21.6
20) Cc1nc(CN2C(=O)C[C@@H]3[C@@H]2CCN3S(=O)(=O)C2CC2)cs1 = -64.1
21) CS(=O)(=O)c1ccc(C(=O)N2CCCC(n3cncn3)C2)o1 (stereo unspecified) = 21.8
22) O=C1CC2(CCN(Cc3ccoc3)CC2)CN1Cc1cc(F)cc(F)c1 = 73.4
23) O=C1CC2(CCN(CCCF)CC2)CN1Cc1cc(F)cc(F)c1 = 75.7
24) CCc1c(O)nc(SCC(=O)N(CC)CC)n(C(C)CC)c1=O (stereo unspecified) = 29
25) Cc1cc(C2CCCN2Cc2nc3ccccc3o2)on1 (stereo unspecified) = -12.2
26) CN(C)C(=O)c1cc(-c2ccccc2)[nH]n1 = -35
27) CCN1CC2(CCN(CCOc3ccc(F)cc3)CC2)CC1=O = 0.868
28) COc1ccc(C)cc1CNCc1ccc(-n2nc(C)cc2C)nc1 = 18.6
29) Cc1ccc2c(c1)c(CNC(C)Cn1nc(C)cc1C)nn2C (stereo unspecified) = 10.9
30) O=C1CC2(CCN(CCO)CC2)CN1Cc1cc(F)cc(F)c1 = 60.1
31) O=C1CC2(CCN(Cc3ncc[nH]3)CC2)CN1Cc1cc(F)cc(F)c1 = -6.05
32) CCc1nnc(C2Cc3ccccc3CN2Cc2nc(C)no2)o1 (stereo unspecified) = 9.64
33) CCc1nc(CN(C)CC(N)=O)cs1 = 31.8
34) CC1CCc2nc(NC(=O)CN(C)C(=O)c3ccco3)sc2C1 (stereo unspecified) = 31.4
35) CCc1nnc(C2Cc3ccccc3CN2Cc2cc(C)on2)o1 (stereo unspecified) = 68.1
36) CCc1nnc(C2Cc3ccccc3CN2Cc2ncc(Cl)n2C)o1 (stereo unspecified) = 1.84
37) O=C1CC2(CCN(CCCO)CC2)CN1Cc1ccc(F)c(F)c1 = 36.8
38) O=C(c1cnccn1)N1CCN(Cc2cccnc2)c2ncccc2C1 = 11.5
39) O=C(Cn1cc(Cl)cn1)N1CCCC(c2cc3ccccc3cn2)C1 (stereo unspecified) = 24.4
40) Cc1cc(C(=O)N2CCC(O)(Cn3c(C)cc4ccncc43)CC2)on1 = 9.05
41) CCn1cc(C(=O)N2CCOCC2)cn1 = -60.9
